target: BpeGReg; assay: Ligand binding kinetics and affinity of BpeGReg; design: species or system Bordetella pertussis; details: read-out: O2 Kd; 25°C, 100 mM NaPi, pH 7.5
attributeMeasured: pKd
Answers are plain numbers, as −log10 of the molar value.

In: For BpeGReg, give the measured pKd of the entry O=O [O2, oxygen]
Out: 6.19
